Test name: ring opening hydrolysis stability in buffer with different pHs
Assay type: physicochemical
Test parameters: pH 1.0, after 24 h
Marks after values point to notes of the source that are not given here.
Parameter pH=1.0, ring opening hydrolysis, percent compound remaining: see the listing below.
Value type: pH=1.0, ring opening hydrolysis, percent compound remaining

> print(dat)
                                   molecule  readout.value
1  Cc1c(C#CCNC(=O)OC(C)(C)C)cccc1N1CCC(=O)NC1=O [Compound 6F]      >99^[g] %
2  Cc1c(OCC(=O)N2CCCCC2)cccc1N1CCC(=O)NC1=O [Compound 9]           >99%
3  CC(=O)NCCC#Cc1cccc(N2CCC(=O)NC2=O)c1C [Compound 11]           >99%
4  Nc1cccc2c1CN(C1CCC(=O)NC1=O)C2=O (centres unmarked) [Lenalidomide, lenalidomide, reference compound]           >99%
5  CCNC(=O)COc1cccc(N2CCC(=O)NC2=O)c1C [Compound 10]           >99%

Origin of measurements: paper PMC10398712
